All values here come from patent US11878975B2.

biological target: human TLR8 (Homo sapiens); assay: TLR8 inhibition reporter assay (HEK-Blue cells, SEAP reporter, R848 stimulation); details: HEK-Blue cells overexpressing human TLR8, SEAP reporter, R848 15.9 μM
Sequence (Q9NR97 27-1041): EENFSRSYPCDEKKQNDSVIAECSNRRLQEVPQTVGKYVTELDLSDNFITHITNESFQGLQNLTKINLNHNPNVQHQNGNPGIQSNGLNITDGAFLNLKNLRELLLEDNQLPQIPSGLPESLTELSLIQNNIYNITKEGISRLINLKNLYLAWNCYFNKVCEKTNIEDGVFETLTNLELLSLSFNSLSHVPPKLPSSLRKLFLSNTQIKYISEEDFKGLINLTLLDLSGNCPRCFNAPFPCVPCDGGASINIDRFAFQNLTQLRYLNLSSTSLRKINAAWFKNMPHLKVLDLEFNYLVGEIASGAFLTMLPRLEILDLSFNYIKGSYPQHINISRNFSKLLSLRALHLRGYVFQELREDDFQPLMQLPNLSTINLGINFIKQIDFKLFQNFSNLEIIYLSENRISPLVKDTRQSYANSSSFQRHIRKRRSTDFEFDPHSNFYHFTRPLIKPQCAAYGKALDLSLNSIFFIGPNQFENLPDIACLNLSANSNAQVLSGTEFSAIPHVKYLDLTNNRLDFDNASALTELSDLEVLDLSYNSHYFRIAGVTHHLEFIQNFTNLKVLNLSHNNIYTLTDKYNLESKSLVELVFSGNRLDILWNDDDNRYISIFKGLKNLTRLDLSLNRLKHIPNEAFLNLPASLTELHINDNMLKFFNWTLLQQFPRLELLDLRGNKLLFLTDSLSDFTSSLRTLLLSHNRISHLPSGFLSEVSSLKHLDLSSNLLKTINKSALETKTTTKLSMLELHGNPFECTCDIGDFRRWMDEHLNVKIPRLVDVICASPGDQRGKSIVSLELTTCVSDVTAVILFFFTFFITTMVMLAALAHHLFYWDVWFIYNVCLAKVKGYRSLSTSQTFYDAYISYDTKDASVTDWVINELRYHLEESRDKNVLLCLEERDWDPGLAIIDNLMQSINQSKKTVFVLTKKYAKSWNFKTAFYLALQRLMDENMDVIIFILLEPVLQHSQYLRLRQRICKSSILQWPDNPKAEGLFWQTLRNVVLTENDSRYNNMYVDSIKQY
pIC50: −log10 of the molar value.

{"compound": "COc1cc(-c2[nH]c3ccc(C4CCC(NCC(=O)NC5COC5)CC4)cc3c2C(C)C)cn2ncnc12 (stereo not shown) [Example 164]", "assayed-system": "human TLR8 (Homo sapiens)", "pIC50": 8.15}
{"compound": "COc1cc(-c2[nH]c3ccc(C4CCC(NC(=O)CNC5COC5)CC4)cc3c2C(C)C)cn2ncnc12 (stereo not shown) [Example 139]", "assayed-system": "human TLR8 (Homo sapiens)", "pIC50": 7.40}
{"compound": "CNCC(=O)NC1CCC(c2ccc3[nH]c(-c4cc(C)nc(C)c4)c(C(C)C)c3c2)CC1 (single isomer, unassigned) [Example 130]", "assayed-system": "human TLR8 (Homo sapiens)", "pIC50": 7.48}
{"compound": "COc1cc(-c2[nH]c3ccc(C4CCC(N5CC6(COC6)C5)CC4)cc3c2C(C)C)cn2ncnc12 (stereo not shown) [Example 80]", "assayed-system": "human TLR8 (Homo sapiens)", "pIC50": 8.68}
{"compound": "COc1cc(-c2[nH]c3ccc(C4CCC(N(C)C(C)C)C4)cc3c2C(C)C)cn2ncnc12 (single isomer, unassigned) [Example 278]", "assayed-system": "human TLR8 (Homo sapiens)", "pIC50": 8.82}
{"compound": "Cc1c(-c2[nH]c3ccc(C4CN(CC#N)C4)cc3c2C(C)C)cn2ncnc2c1C", "assayed-system": "human TLR8 (Homo sapiens)", "pIC50": 8.14}
{"compound": "Cc1cc(-c2[nH]c3ccc(C4CN(C)CCO4)cc3c2C(C)C)cn2ncnc12 (stereo not shown) [Example 296]", "assayed-system": "human TLR8 (Homo sapiens)", "pIC50": 8.20}
